target.or.test.system: Bromodomain-containing protein 4 (Homo sapiens, UniProt O60885)
test: Binding affinity to BRD4 (1) (unknown origin) N-terminal bromodomain by TR-FRET assay
measured.parameter: IC50

Worked cases, answers included:
Cc1c(NCc2ccccc2N2CCNCC2)cnn(C)c1=O > 50.1 µM
CCCCc1c(Nc2cccc3c2CCN(C)C3)cnn(C)c1=O > 50.1 µM

Now examine the next entry.
Report value: IC50, system: Bromodomain-containing protein 4 (Homo sapiens, UniProt O60885), compound: "Cc1c(NCc2ccccc2N2CCN(C)CC2)cnn(C)c1=O"
> 50.1 µM

* * *

Organism: Homo sapiens
test: Selectivity index, ratio of IC50 for binding affinity to BRD4 (1) (unknown origin) N-terminal bromodomain to IC50 for binding affinity to BRD9 (unknown origin) N-terminal bromodomain
Threshold rule: fold selectivity greater than or equal to 100 is 1 (yes); below that, 0 (no).

Past entries and their recorded results:
Cc1c(NCc2ccccc2N2CCNCC2)cnn(C)c1=O 1 (yes)
Cc1c(NCc2ccccc2N2CCOCC2)cnn(C)c1=O 1 (yes)
Cc1ccccc1CNc1cnn(C)c(=O)c1C 0 (no)
Cc1c(NCc2ccccc2)cnn(C)c1=O 0 (no)
Cc1c(NCc2ccccc2N2CCCOCC2)cnn(C)c1=O 1 (yes)
Cc1cccc(CNc2cnn(C)c(=O)c2Cl)c1 0 (no)

I'd appreciate it if you could say whether "Cc1c(NCc2ccccc2N2CCN(CCCN)CC2)cnn(C)c1=O" has fold selectivity at least equal to 100.
1 (yes)

* * *

test: Chromatographic hydrophobicity index, logD of the compound at pH 7.4 by HPLC analysis
Assay type: physicochemical
reported.conditions: buffer
measured.parameter: chromatographic logD
Please reply with the number alone, leaving off any unit.

Worked cases, answers included:
Cc1c(NCc2ccccc2)cnn(C)c1=O 2.9
C=C[C@@H](C)c1c(NCc2ccccc2N2CCN(C)CC2)cnn(C)c1=O 3.1
Cc1c(NCc2ccccc2N2CCN(C)CC2)cnn(C)c1=O 1.6
C/C=C\Cc1c(NCc2ccccc2N2CCN(C)CC2)cnn(C)c1=O 3
Cc1c(NCc2ccccc2N2CCN(CCCN)CC2)cnn(C)c1=O 1.2
Cc1c(NCc2ccccc2N2CCCOCC2)cnn(C)c1=O 3.5
Cc1c(NCc2ccccc2-c2ccccc2)cnn(C)c1=O 4.8
Cc1ccccc1CNc1cnn(C)c(=O)c1C 3.6

Indicate the recorded chromatographic logD value for this molecule: "C=CCCc1c(NCc2ccccc2N2CCN(C)CC2)cnn(C)c1=O"
3.2

Indicate the recorded chromatographic logD value for this molecule: "C/C=C/Cc1c(NCc2ccccc2N2CCN(C)CC2)cnn(C)c1=O"
3.1
